Target: UniProt:P11309
Sequence (P11309 whole entry, looked up): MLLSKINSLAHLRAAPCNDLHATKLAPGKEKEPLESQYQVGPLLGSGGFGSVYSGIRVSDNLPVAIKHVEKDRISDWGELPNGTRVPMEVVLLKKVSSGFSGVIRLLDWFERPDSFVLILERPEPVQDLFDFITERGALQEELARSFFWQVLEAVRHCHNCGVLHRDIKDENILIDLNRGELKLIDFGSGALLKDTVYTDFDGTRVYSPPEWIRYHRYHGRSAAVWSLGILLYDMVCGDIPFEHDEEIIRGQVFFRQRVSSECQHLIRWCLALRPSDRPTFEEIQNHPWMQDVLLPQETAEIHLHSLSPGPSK
Assay: KINOMEscan competition binding
Conditions: compound 10.0 µM

>  <molecule-smiles>
Cc1cc([C@@H](C)Nc2ccccc2C(=O)O)c2nc(N3CCOCC3)cc(=O)n2c1

>  <tested-on>
UniProt:P11309

>  <scale-unit>
%

>  <kinase still bound, per cent of control>
100

$$$$
>  <molecule-smiles>
CN(C)C/C=C/C(=O)Nc1cccc(Nc2ncc3c(n2)N(C)c2ccccc2C(=O)N3C)c1

>  <tested-on>
UniProt:P11309

>  <scale-unit>
%

>  <kinase still bound, per cent of control>
66

$$$$
>  <molecule-smiles>
C[C@@H](Oc1cc(-n2cnc3ccc(CN4CCN(C)CC4)cc32)sc1C(N)=O)c1ccccc1C(F)(F)F

>  <tested-on>
UniProt:P11309

>  <scale-unit>
%

>  <kinase still bound, per cent of control>
3

$$$$
>  <molecule-smiles>
C=CC(=O)Nc1cc(NC(=O)c2ccc(C)c(NC(=O)c3ccno3)c2)cc(C(F)(F)F)c1

>  <tested-on>
UniProt:P11309

>  <scale-unit>
%

>  <kinase still bound, per cent of control>
100

$$$$
>  <molecule-smiles>
Cn1c(=O)n(-c2ccc(C(C)(C)C#N)cc2)c2c3cc(-c4cnc5ccccc5c4)ccc3ncc21

>  <tested-on>
UniProt:P11309

>  <scale-unit>
%

>  <kinase still bound, per cent of control>
100

$$$$
>  <molecule-smiles>
CCN1CCN(Cc2ccc(Nc3ncc4c(n3)N(C)c3ccccc3C(=O)N4C)cc2C(F)(F)F)CC1

>  <tested-on>
UniProt:P11309

>  <scale-unit>
%

>  <kinase still bound, per cent of control>
86

$$$$
>  <molecule-smiles>
Cc1ccc(C(=O)Nc2cccc(C(F)(F)F)c2)cc1Nc1cncc(C(N)=O)c1

>  <tested-on>
UniProt:P11309

>  <scale-unit>
%

>  <kinase still bound, per cent of control>
100

$$$$
>  <molecule-smiles>
C=CC(=O)Nc1cccc(Nc2nc(N[C@H]3CC[C@H](N(C)C)CC3)nc3c2ncn3C(C)C)c1

>  <tested-on>
UniProt:P11309

>  <scale-unit>
%

>  <kinase still bound, per cent of control>
92

$$$$
>  <molecule-smiles>
O=C(NC1CC1)c1cccc(-c2ccc3c(NC(=O)C4CC4)n[nH]c3c2)c1

>  <tested-on>
UniProt:P11309

>  <scale-unit>
%

>  <kinase still bound, per cent of control>
70

$$$$

----------
Biological target: PKN3 (M.tuberculosis) (UniProt Q6P5Z2)
Sequence (Q6P5Z2 whole entry, looked up): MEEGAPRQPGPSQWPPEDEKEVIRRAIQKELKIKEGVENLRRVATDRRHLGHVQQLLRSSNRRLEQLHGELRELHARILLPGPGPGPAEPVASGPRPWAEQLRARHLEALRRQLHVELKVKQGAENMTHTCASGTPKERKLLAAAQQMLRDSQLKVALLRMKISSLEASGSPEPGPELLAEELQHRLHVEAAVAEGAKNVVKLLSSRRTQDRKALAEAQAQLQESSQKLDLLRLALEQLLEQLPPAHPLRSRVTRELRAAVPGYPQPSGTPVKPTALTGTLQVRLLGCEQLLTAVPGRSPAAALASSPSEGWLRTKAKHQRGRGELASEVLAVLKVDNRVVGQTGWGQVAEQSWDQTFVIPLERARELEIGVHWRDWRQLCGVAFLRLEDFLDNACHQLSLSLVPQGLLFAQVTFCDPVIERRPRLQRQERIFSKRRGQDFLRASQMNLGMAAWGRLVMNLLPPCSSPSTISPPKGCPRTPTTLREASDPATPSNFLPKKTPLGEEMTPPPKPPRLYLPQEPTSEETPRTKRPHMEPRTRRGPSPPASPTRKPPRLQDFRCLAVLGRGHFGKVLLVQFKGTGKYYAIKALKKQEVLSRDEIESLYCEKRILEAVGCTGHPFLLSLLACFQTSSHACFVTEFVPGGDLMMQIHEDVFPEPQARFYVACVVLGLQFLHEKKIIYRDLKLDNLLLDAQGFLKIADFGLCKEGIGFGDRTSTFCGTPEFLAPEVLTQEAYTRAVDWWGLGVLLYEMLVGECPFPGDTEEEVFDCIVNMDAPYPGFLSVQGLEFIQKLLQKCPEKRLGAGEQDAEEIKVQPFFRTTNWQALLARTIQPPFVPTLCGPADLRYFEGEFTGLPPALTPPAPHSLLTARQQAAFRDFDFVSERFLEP
Assay: KINOMEscan competition binding
Settings: compound 10.0 µM
Parameter: kinase still bound, per cent of control. Scope: all listed entries.

>  <molecule-smiles>
CCCS(=O)(=O)Nc1ccc(F)c(C(=O)c2c[nH]c3ncc(-c4ccc(Cl)cc4)cc23)c1F

>  <kinase still bound, per cent of control>
78%

$$$$
>  <molecule-smiles>
O=C(NOC[C@H](O)CO)c1ccc(F)c(F)c1Nc1ccc(I)cc1F

>  <kinase still bound, per cent of control>
91%

$$$$
>  <molecule-smiles>
CCN1CCN(Cc2ccc(Nc3ncc4c(n3)N(C)c3ccccc3C(=O)N4C)cc2C(F)(F)F)CC1

>  <kinase still bound, per cent of control>
22%

$$$$
>  <molecule-smiles>
Cc1cc([C@@H](C)Nc2ccccc2C(=O)O)c2nc(N3CCOCC3)cc(=O)n2c1

>  <kinase still bound, per cent of control>
98%

$$$$
>  <molecule-smiles>
CN(C)C/C=C/C(=O)Nc1cccc(Nc2ncc3c(n2)N(C)c2ccccc2C(=O)N3C)c1

>  <kinase still bound, per cent of control>
42%

$$$$
>  <molecule-smiles>
N#Cc1c(NC(=O)c2cccc3ccccc23)sc2c1CCCC2

>  <kinase still bound, per cent of control>
100%

$$$$
>  <molecule-smiles>
C[C@@H](Oc1cc(-n2cnc3ccc(CN4CCN(C)CC4)cc32)sc1C(N)=O)c1ccccc1C(F)(F)F

>  <kinase still bound, per cent of control>
27%

$$$$

----------
Molecular target: HIPK3 (human) (UniProt Q9H422)
Sequence (Q9H422 whole entry, looked up): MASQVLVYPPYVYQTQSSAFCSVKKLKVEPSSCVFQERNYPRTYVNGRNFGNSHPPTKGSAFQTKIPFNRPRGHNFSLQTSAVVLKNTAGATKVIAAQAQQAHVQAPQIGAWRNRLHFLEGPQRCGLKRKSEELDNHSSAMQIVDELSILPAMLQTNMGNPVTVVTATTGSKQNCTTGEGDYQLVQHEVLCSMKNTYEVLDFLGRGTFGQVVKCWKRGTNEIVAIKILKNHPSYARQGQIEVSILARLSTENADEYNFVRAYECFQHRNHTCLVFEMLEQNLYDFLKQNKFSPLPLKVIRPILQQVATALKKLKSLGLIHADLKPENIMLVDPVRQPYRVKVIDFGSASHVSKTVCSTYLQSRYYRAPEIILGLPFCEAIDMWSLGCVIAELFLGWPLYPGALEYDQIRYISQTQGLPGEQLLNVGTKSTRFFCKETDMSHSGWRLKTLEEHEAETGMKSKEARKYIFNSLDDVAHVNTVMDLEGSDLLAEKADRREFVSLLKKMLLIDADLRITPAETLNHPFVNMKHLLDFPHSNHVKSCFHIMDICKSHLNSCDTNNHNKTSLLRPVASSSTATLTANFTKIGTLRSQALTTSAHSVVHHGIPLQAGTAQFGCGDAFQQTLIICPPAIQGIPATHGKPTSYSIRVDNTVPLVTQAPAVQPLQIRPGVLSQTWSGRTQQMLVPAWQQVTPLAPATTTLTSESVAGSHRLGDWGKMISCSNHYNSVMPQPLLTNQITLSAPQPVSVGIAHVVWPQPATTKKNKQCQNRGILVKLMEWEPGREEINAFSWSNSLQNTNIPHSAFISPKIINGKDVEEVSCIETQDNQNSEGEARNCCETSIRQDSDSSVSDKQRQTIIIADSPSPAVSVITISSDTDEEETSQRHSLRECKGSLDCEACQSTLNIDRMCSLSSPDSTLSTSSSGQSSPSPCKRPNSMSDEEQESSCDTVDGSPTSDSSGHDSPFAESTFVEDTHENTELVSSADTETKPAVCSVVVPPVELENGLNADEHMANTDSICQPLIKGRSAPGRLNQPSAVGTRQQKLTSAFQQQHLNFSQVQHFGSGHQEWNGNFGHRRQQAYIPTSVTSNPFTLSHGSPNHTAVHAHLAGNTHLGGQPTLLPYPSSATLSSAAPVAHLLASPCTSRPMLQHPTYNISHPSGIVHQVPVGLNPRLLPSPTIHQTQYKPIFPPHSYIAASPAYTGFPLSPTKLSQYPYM
Assay: KINOMEscan competition binding
Details: compound 10.0 µM
property-measured: kinase still bound, per cent of control (%)

>  <molecule-smiles>
CN(C)C/C=C/C(=O)Nc1cccc(Nc2ncc3c(n2)N(C)c2ccccc2C(=O)N3C)c1

>  <property-measured>
kinase still bound, per cent of control

>  <reported>
85

$$$$
>  <molecule-smiles>
Cc1ccc2nc(NCCN)c3ncc(C)n3c2c1

>  <property-measured>
kinase still bound, per cent of control

>  <reported>
32

$$$$
>  <molecule-smiles>
O=C(NC1CC1)c1cccc(-c2ccc3c(NC(=O)C4CC4)n[nH]c3c2)c1

>  <property-measured>
kinase still bound, per cent of control

>  <reported>
62

$$$$
>  <molecule-smiles>
O=C(O)c1ccc(Nc2ncc3c(n2)-c2ccc(Cl)cc2C(c2c(F)cccc2F)=NC3)cc1

>  <property-measured>
kinase still bound, per cent of control

>  <reported>
80

$$$$
>  <molecule-smiles>
C=CC(=O)Nc1cc(NC(=O)c2ccc(C)c(NC(=O)c3ccno3)c2)cc(C(F)(F)F)c1

>  <property-measured>
kinase still bound, per cent of control

>  <reported>
100

$$$$
>  <molecule-smiles>
O=C1Nc2ccc(I)cc2/C1=C/c1cc(Br)c(O)c(Br)c1

>  <property-measured>
kinase still bound, per cent of control

>  <reported>
8

$$$$

----------
# key: entry, value: kinase still bound, per cent of control
Molecular target: JAK1 JH2 pseudokinase (human) (UniProt P23458)
Sequence (P23458 whole entry, looked up): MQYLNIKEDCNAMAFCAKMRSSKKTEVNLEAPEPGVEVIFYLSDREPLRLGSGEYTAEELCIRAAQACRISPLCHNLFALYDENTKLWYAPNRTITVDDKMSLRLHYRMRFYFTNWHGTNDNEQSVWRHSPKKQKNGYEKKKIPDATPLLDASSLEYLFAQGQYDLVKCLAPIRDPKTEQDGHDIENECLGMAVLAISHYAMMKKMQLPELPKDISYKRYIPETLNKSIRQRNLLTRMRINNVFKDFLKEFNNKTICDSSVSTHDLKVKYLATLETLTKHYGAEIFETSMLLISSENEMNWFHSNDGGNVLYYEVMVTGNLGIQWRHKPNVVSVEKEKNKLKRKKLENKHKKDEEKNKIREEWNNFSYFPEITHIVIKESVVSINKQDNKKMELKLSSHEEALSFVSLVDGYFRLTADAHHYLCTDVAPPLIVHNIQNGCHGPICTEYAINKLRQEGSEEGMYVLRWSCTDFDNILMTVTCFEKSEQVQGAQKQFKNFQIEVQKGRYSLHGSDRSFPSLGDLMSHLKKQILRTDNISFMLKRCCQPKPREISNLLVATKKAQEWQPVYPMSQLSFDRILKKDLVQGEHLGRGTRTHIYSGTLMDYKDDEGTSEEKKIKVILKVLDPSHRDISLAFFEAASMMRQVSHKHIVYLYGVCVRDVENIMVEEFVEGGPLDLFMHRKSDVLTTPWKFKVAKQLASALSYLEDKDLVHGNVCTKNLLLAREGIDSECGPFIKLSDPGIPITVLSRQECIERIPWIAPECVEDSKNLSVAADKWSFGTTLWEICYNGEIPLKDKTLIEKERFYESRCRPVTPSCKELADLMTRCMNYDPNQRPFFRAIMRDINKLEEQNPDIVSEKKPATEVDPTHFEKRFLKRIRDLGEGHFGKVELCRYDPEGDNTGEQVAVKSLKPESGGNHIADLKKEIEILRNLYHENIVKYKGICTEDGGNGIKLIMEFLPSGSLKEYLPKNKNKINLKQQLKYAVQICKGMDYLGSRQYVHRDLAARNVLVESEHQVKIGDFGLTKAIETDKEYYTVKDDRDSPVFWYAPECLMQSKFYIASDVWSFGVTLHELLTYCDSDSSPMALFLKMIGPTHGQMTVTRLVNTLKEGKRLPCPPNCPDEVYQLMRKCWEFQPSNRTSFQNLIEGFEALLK
Assay: KINOMEscan competition binding
Conditions: compound 10.0 µM

>  <compound>
COc1cc(C(=O)NC2CCN(C)CC2)ccc1Nc1ncc2c(n1)N(C1CCCC1)CCC(=O)N2C(C)C

>  <kinase still bound, per cent of control (%)>
100

$$$$
>  <compound>
CCCS(=O)(=O)Nc1ccc(F)c(C(=O)c2c[nH]c3ncc(-c4ccc(Cl)cc4)cc23)c1F

>  <kinase still bound, per cent of control (%)>
100

$$$$
>  <compound>
Cn1c(=O)n(-c2ccc(C(C)(C)C#N)cc2)c2c3cc(-c4cnc5ccccc5c4)ccc3ncc21

>  <kinase still bound, per cent of control (%)>
100

$$$$
>  <compound>
C=CC(=O)Nc1cc(NC(=O)c2ccc(C)c(NC(=O)c3ccno3)c2)cc(C(F)(F)F)c1

>  <kinase still bound, per cent of control (%)>
92

$$$$
>  <compound>
Nc1ccc(-c2ccc3ncc4ccc(=O)n(-c5cccc(C(F)(F)F)c5)c4c3c2)cn1

>  <kinase still bound, per cent of control (%)>
13

$$$$
>  <compound>
C=CC(=O)Nc1cccc(Oc2nc(Nc3ccc(N4CCN(C)CC4)cc3OC)ncc2Cl)c1

>  <kinase still bound, per cent of control (%)>
100

$$$$
>  <compound>
COc1cc(C(=O)NC2CCN(C)CC2)ccc1Nc1ncc2c(n1)N(C1CCCC1)C(C)CC(=O)N2C (configuration not stated)

>  <kinase still bound, per cent of control (%)>
22

$$$$
>  <compound>
CCN1CCN(Cc2ccc(Nc3ncc4c(n3)N(C)c3ccccc3C(=O)N4C)cc2C(F)(F)F)CC1

>  <kinase still bound, per cent of control (%)>
0.1

$$$$
>  <compound>
CC[C@@H]1C(=O)N(C)c2cnc(Nc3ccc(C(=O)NC4CCN(C)CC4)cc3OC)nc2N1C1CCCC1

>  <kinase still bound, per cent of control (%)>
100

$$$$
>  <compound>
O=C(NC1CC1)c1cccc(-c2ccc3c(NC(=O)C4CC4)n[nH]c3c2)c1

>  <kinase still bound, per cent of control (%)>
84

$$$$
>  <compound>
CN(C)C/C=C/C(=O)Nc1cccc(Nc2ncc3c(n2)N(C)c2ccccc2C(=O)N3C)c1

>  <kinase still bound, per cent of control (%)>
0.25

$$$$
>  <compound>
N#Cc1c(NC(=O)c2cccc3ccccc23)sc2c1CCCC2

>  <kinase still bound, per cent of control (%)>
90

$$$$

----------
Target: CaMK1 (human)
Assay: KINOMEscan competition binding
Settings: compound 10.0 µM

>  <molecule-smiles>
O=C(O)c1ccc(Nc2ncc3c(n2)-c2ccc(Cl)cc2C(c2c(F)cccc2F)=NC3)cc1

>  <kinase still bound, per cent of control [%]>
78

$$$$
>  <molecule-smiles>
CC[C@@H]1C(=O)N(C)c2cnc(Nc3ccc(C(=O)NC4CCN(C)CC4)cc3OC)nc2N1C1CCCC1

>  <kinase still bound, per cent of control [%]>
100

$$$$
>  <molecule-smiles>
Cn1c(=O)n(-c2ccc(C(C)(C)C#N)cc2)c2c3cc(-c4cnc5ccccc5c4)ccc3ncc21

>  <kinase still bound, per cent of control [%]>
100

$$$$
>  <molecule-smiles>
Cc1ccc2nc(NCCN)c3ncc(C)n3c2c1

>  <kinase still bound, per cent of control [%]>
98

$$$$
